test system: Vero E6 infected with SARS-CoV-2; test: morphology score (similarity to uninfected cells); higher = more like uninfected cells; conditions: 24 h
y means recorded morphology score is 0.1 or above; n means it is below 0.1.

Determine whether this molecule has morphology score no lower than 0.1: CCCC[C@]1(CC)CS(=O)(=O)c2cc(CNC(CC(=O)O)CC(=O)O)c(OC)cc2[C@@H](c2ccccc2)N1 (10 µM)
n

Determine whether this molecule has morphology score no lower than 0.1: Nc1nc(N)nc(-c2cc(Cl)ccc2Cl)n1 [irsogladine] (10 µM)
y

Determine whether this molecule has morphology score no lower than 0.1: CC(C)(Oc1ccc(Cl)cc1)C(=O)OCCOC(=O)c1cccnc1 [etofibrate] (10 µM)
y

Determine whether this molecule has morphology score no lower than 0.1: C#C[C@]1(OC(=O)CCCCCC)CC[C@H]2[C@@H]3CCC4=CC(=O)CC[C@@H]4[C@H]3CC[C@@]21C [norethisterone-enanthate] (10 µM)
y

Determine whether this molecule has morphology score no lower than 0.1: C=C1C(=O)O[C@@H]2/C=C(\C)CC/C=C(\C)CC[C@@H]12 [costunolide] (10 µM)
y

Determine whether this molecule has morphology score no lower than 0.1: CCC(=O)O[C@]1(C(=O)CCl)[C@@H](C)C[C@H]2[C@@H]3CCC4=CC(=O)C=C[C@]4(C)[C@@]3(F)[C@@H](O)C[C@@]21C [clobetasol-propionate] (10 µM)
n

Determine whether this molecule has morphology score no lower than 0.1: C#Cc1cnc2nc(O)n(C(CC)CC)c2n1 [tirasemtiv] (10 µM)
n

Determine whether this molecule has morphology score no lower than 0.1: O=C(N[C@@H]1Cc2ccccc2N(C[C@@H](O)CO)C1=O)c1cc2cc(Cl)sc2[nH]1 (10 µM)
n

Determine whether this molecule has morphology score no lower than 0.1: CCCOC(=O)c1ccccc1 [propyl-benzoate] (10 µM)
y

Determine whether this molecule has morphology score no lower than 0.1: C=C1C(=O)O[C@@H]2[C@H]3O[C@]3(C)CC/C=C(\C)CC[C@@H]12 [parthenolide-(alternate-stereo)] (0.833333 µM)
y

Determine whether this molecule has morphology score no lower than 0.1: C[C@H](Oc1cc(-c2cnn(C3CCNCC3)c2)cnc1N)c1c(Cl)ccc(F)c1Cl [crizotinib-(S)] (10 µM)
y

Determine whether this molecule has morphology score no lower than 0.1: O=C(O)c1nn(Cc2ccc(Cl)cc2Cl)c2ccccc12 [lonidamine] (10 µM)
n

Determine whether this molecule has morphology score no lower than 0.1: CCc1ccc(/C=C/C(=O)Nc2ccc(C(C)=O)cc2)o1 [heclin] (10 µM)
y

Determine whether this molecule has morphology score no lower than 0.1: CCN(CC)S(=O)(=O)c1ccc(C(=O)O)cc1 [etebenecid] (10 µM)
y

Determine whether this molecule has morphology score no lower than 0.1: O=C(Nc1cccc(C(F)(F)F)c1)Nc1cc(S(=O)(=O)NC2CC2)ccc1-c1ccsc1 (10 µM)
y

Determine whether this molecule has morphology score no lower than 0.1: Cc1ncc(C[n+]2csc(CCO)c2C)c(N)n1 [thiamine] (10 µM)
y

Determine whether this molecule has morphology score no lower than 0.1: CC1(C)NC(=O)N(c2ccc([N+](=O)[O-])c(C(F)(F)F)c2)C1=O [nilutamide] (10 µM)
y

Determine whether this molecule has morphology score no lower than 0.1: CC(C)(C)c1ccc(O)cc1 [4-tert-butylphenol] (10 µM)
n

Determine whether this molecule has morphology score no lower than 0.1: CC(C)n1nccc1-c1ncccc1COc1cccc(O)c1C=O [voxelotor] (10 µM)
y

Determine whether this molecule has morphology score no lower than 0.1: OCCN1CCN(CC/C=C2/c3ccccc3Sc3ccc(Cl)cc32)CC1 [zuclopenthixol] (0.833333 µM)
n

Determine whether this molecule has morphology score no lower than 0.1: CN1CCN(c2ccc(C(=O)Nc3n[nH]c4ccc(Cc5cc(F)cc(F)c5)cc34)c(NC3CCOCC3)c2)CC1 [entrectinib] (0.833333 µM)
y
